- Measurement conditions: 303.15 K; 60100 kPa; Liquid; Frequency=1.5 MHz; Single path-length method
Endpoint: speed of sound (m/s)

[[record]]
compound = "CCCO [propan-1-ol]"
experimental_value = 1476.2

[[record]]
compound = "CCCCCC [hexane]"
experimental_value = 1421.1

[[record]]
compound = "O [water]"
experimental_value = 1609.8

[[record]]
compound = "Cc1ccccc1 [toluene]"
experimental_value = 1539.6

[[record]]
compound = "CCCCCCC [heptane]"
experimental_value = 1454.5

[[record]]
compound = "CCO [ethanol]"
experimental_value = 1424.6

[[record]]
compound = "CO [methanol]"
experimental_value = 1372.8

[[record]]
compound = "CCCCCCCC [octane]"
experimental_value = 1480

